Molecular target: PDGFRα (Homo sapiens, UniProt P16234)
Construct: purchased Millipore 14-467 (lot 26321_ACTI)
Sequence (P16234 24-1089): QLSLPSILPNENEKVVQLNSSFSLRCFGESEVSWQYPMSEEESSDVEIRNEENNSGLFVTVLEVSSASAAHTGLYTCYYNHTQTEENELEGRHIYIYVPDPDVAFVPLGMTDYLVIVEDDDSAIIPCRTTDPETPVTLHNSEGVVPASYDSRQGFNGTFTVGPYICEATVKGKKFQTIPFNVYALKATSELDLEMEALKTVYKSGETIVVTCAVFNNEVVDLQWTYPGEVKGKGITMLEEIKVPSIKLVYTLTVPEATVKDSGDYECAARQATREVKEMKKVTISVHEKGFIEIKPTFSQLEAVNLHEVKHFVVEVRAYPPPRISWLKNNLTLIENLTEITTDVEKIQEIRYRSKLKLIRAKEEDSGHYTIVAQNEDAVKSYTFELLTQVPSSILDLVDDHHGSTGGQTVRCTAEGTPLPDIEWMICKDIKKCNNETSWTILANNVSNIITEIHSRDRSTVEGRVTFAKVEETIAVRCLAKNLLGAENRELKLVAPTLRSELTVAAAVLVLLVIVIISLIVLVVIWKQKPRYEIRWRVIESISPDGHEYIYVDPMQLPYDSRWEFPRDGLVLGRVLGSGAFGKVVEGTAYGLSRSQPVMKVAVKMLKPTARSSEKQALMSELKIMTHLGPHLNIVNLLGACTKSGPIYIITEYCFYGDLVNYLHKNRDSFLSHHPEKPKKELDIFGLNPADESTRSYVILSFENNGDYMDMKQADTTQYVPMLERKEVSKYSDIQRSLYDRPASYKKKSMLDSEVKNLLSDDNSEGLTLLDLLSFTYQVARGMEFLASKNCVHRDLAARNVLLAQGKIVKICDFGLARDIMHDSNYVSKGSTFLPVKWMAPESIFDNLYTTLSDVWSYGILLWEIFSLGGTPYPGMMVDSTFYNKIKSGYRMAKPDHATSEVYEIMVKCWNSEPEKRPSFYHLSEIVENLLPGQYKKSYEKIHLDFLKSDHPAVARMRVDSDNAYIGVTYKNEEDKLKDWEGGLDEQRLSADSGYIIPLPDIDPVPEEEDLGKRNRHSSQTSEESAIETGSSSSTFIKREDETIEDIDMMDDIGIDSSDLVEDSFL
Assay: Caliper biochemical assay, PDGFRα
Details: Table 6
Procedure: Enzyme, substrate, and cofactors (ATP and Mn^2+) are combined in a well of a microtiter plate and incubated for 3 hours at 25° C. At the end of the incubation, the reaction is quenched by the addition of an EDTA-containing buffer. Substrate and product are separated electrophoretically using the microfluidic-based LabChip 3000 Drug Discovery System from Caliper Life Sciences* and quantitated by fluorescence intensity. […] • 1. […] Read plate LabChip 3000 Drug Discovery System […]
pIC50: −log10 of the molar value.

| compound | pIC50 |
| --- | --- |
| COC12CC(c3nc(-c4ccc(C)c(NC(=O)c5cnc6ccccn56)c4)no3)(C1)C2 | 6.30 to 7.30 |
| O=C(Nc1cc(-c2noc([C@H]3C[C@@H]3F)n2)ccc1Br)c1cnc2ccccn12 | 6.30 to 7.30 |
| Cc1ccc(-c2noc([C@@H]3CCN3CC(F)(F)F)n2)cc1NC(=O)c1cnc2ccccn12 (racemic) | 6.30 to 7.30 |
| Cc1ccc(-c2noc(C3CCC3F)n2)cc1NC(=O)c1cnc2ccccn12 (racemic) [Compound I-376] | 6.30 to 7.30 |
